Data credit: paper PMC9298201

molecular target: VchCAα (Vibrio cholerae)
Sequence (Q9KMP6 entry or part of it): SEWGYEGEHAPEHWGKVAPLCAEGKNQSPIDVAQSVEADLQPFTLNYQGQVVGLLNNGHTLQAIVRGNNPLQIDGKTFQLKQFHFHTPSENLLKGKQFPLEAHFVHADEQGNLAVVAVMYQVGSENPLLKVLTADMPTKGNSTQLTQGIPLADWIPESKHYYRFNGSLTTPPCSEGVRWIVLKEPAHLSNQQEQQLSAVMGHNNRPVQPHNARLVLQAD
// NB: equality with 0.02 µM counts as label 0; only Ki strictly below is label 1

Would you please look over these solved cases?
INSERT INTO assay_data (compound, tested_system, class_assignment) VALUES
  ('NS(=O)(=O)c1ccc(CNC(=O)CNC(=O)c2ccco2)cc1 [compound 39]', 'VchCAα (Vibrio cholerae)', 'label 0'),
  ('NCC(=O)Nc1ccc(S(N)(=O)=O)cc1 [compound 10, 2‐amino‐N‐(4‐sulfamoylphenyl)acetamide]', 'VchCAα (Vibrio cholerae)', 'label 1'),
  ('NS(=O)(=O)c1ccc(NC(=O)CNC(=O)c2ccco2)cc1 [compound 31]', 'VchCAα (Vibrio cholerae)', 'label 1'),
  ('NS(=O)(=O)c1ccc(NC(=O)CNC(=O)c2cccc(Cl)c2)cc1 [compound 21]', 'VchCAα (Vibrio cholerae)', 'label 1'),
  ('C[C@H](NC(=O)c1cccs1)C(=O)NCc1ccc(S(N)(=O)=O)cc1 [compound 43]', 'VchCAα (Vibrio cholerae)', 'label 0'),
  ('NS(=O)(=O)c1ccc(CNC(=O)CNC(=O)c2cccs2)cc1 [compound 42]', 'VchCAα (Vibrio cholerae)', 'label 1');

For this compound, is Ki lower than 0.02 µM? C[C@H](NC(=O)c1ccco1)C(=O)NCc1ccc(S(N)(=O)=O)cc1 [compound 40] label 1

Please let me know if CC(C)[C@H](NC(=O)c1ccccc1)C(=O)Nc1ccc(S(N)(=O)=O)cc1 [compound 15] shows Ki below 0.02 µM. label 1

# TODO verify Ki < 0.02 µM strictly for this compound: CC(C)[C@H](NC(=O)c1cccs1)C(=O)NCc1ccc(S(N)(=O)=O)cc1 [compound 44] label 0

Decide: Ki of CC(C)[C@H](NC(=O)c1ccccc1)C(=O)NCc1ccc(S(N)(=O)=O)cc1 [compound 38] strictly below 0.02 µM? label 0

Dear colleague, could you confirm whether Ki of C[C@H](N)C(=O)Nc1ccc(S(N)(=O)=O)cc1 [compound 11] falls below 0.02 µM? Thanks. label 0
